- Species: Mus musculus
- assaySummary: Cytotoxicity against Balb/c mouse T cells assessed as decrease in cell viability at 1 uM after 48 hrs by MTT assay
- Assay type: toxicity, cell-based
assayMetric: Activity

Before answering, review these 5 worked examples.
CC(=O)Oc1cc(C)c2c(c1C)C[C@H]([C@@H](C)C(=O)OCc1cn(-c3ccccc3Cl)nn1)CC2 : Toxic
CCCCn1cc(COC(=O)[C@H](C)[C@@H]2CCc3c(C)cc(OC(C)=O)c(C)c3C2)nn1 : Non-Toxic
CC(=O)Oc1cc(C)c2c(c1C)C[C@H]([C@@H](C)C(=O)OCc1cn(-c3cccnc3Cl)nn1)CC2 : Toxic
CC(=O)Oc1cc(C)c2c(c1C)C[C@H]([C@@H](C)C(=O)OCc1cn(Cc3ccc(Br)cc3)nn1)CC2 : Non-Toxic
CC(=O)Oc1cc(C)c2c(c1C)C[C@H]([C@@H](C)C(=O)OCc1cn(Cc3ccccc3)nn1)CC2 : Non-Toxic

Suppose we examine the compound CC1=C2[C@H]3OC(=O)[C@@H](C)[C@@H]3CC[C@@]2(C)C=CC1=O ; what Activity value has been reported?
Non-Toxic

Suppose we examine the compound CC(=O)Oc1cc(C)c2c(c1C)C[C@H]([C@@H](C)C(=O)OCc1cn(-c3ccc(Cl)nc3)nn1)CC2 ; what Activity value has been reported?
Non-Toxic

Suppose we examine the compound CC(=O)Oc1cc(C)c2c(c1C)C[C@H]([C@@H](C)C(=O)OCc1cn(-c3ccccc3C#N)nn1)CC2 ; what Activity value has been reported?
Toxic
